Molecular target: Tyrosine-protein phosphatase non-receptor type 6 (Homo sapiens, UniProt P29350)
Sequence (P29350 whole entry): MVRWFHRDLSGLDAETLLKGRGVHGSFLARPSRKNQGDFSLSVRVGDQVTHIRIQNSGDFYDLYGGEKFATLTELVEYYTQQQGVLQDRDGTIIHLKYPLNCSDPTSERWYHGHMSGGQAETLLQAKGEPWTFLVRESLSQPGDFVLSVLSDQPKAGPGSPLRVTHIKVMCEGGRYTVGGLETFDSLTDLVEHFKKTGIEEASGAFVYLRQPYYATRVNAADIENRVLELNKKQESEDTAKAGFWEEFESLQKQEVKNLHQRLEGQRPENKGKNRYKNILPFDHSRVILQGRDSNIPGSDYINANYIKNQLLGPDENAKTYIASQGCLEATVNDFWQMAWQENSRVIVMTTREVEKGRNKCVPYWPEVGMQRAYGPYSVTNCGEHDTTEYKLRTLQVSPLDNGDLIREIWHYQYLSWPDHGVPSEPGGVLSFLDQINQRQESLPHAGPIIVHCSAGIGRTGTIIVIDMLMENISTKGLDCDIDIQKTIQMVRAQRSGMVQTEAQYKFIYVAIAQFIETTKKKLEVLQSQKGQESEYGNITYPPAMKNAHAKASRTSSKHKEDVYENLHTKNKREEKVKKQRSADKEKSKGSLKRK
Assay: Inhibition of human SHP1
Record form. Attribute: IC50. Fill in for each entry.
The reply should contain only the number, in µM.

Entry "CC1=C[C@@]2(C)[C@@H]3C(=O)[C@@]4(C[C@@H]2O)C(=O)NC(Cc2ccc(cc2)O[C@H]2[C@H]3[C@@H]1[C@]1(C)C[C@H](C)C[C@H](C)[C@@H]21)[C@H]4O" under Tyrosine-protein phosphatase non-receptor type 6 (Homo sapiens, UniProt P29350) had IC50 of 200

Query "CO[C@@]12Cc3ccc(cc3)O[C@H]3[C@H]([C@H]4C(=O)[C@](C[C@@H](O)[C@]4(C)C=O)(C1)C(=O)N2)[C@@H](C(C)=O)[C@]1(C)C[C@H](C)C[C@H](C)[C@@H]31" on Tyrosine-protein phosphatase non-receptor type 6 (Homo sapiens, UniProt P29350); IC50 returned: 100
